B1: Hairpin Ribozyme (parent)
chain: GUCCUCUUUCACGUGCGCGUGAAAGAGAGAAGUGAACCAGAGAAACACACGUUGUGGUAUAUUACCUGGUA

- Variants of: B1
- TEST: self-cleavage, relative activity (ratio to wild type); higher = more cleavage; co-transcriptional
Label 1 (yes) when self-cleavage is at or above 0.3; anything below gets 0 (no).

Some solved cases for reference:
| VARIANT_KEY | LABEL |
| --- | --- |
| U5A U20A | 1 (yes) |
| A47G C65G | 0 (no) |
| G19U U20G | 1 (yes) |
| C3A A35C | 1 (yes) |
| G15U G51C | 1 (yes) |
| U9G C16A | 1 (yes) |

Asked: Reported self-cleavage reaches at least 0.3 for C6G C46A ?
Given back: 0 (no)

Asked: Reported self-cleavage reaches at least 0.3 for A45C U67G ?
Given back: 0 (no)

Asked: Reported self-cleavage reaches at least 0.3 for A35U G56U ?
Given back: 0 (no)
